// data source = paper PMC10952621

Target: human wild-type calmodulin (CaM-WT) (human, UniProt P0DP23 2-149)
Assay: ITC; Kv7.1-HA peptide titrated into CaM (~50 uM) in the cell; 50 mM Na-HEPES, 100 mM KCl, 2 mM MgCl2, pH 7.5, 5 mM CaCl2; 25 °C; one-site binding model
Details: both partners purified
VALUE_TYPE: Kd

Item under review: AAASLIQTAWRCYAAENPDS (source: synthetic peptide (GenicBio, HPLC purified, >95% purity)) [Kv7.1-HA(370-389) peptide, helix A of the KCNQ1 C-terminus] . Reported Kd?
~96 µM
